# assay name: Thermodynamic solubility
# Format: physicochemical
# test context: thermodynamic from solid, Milli-Q water, 37 °C

smiles representation | solubility thermodynamic at 5 h (µM)
CC[C@H](NC(=O)[C@H]1CN(c2ccc(C(=N)N)cc2)C(=O)O1)c1cccc2ccccc12 | 2300

* * *

# tested system: CYP2C9 (Homo sapiens)
# Sequence (P11712 whole entry): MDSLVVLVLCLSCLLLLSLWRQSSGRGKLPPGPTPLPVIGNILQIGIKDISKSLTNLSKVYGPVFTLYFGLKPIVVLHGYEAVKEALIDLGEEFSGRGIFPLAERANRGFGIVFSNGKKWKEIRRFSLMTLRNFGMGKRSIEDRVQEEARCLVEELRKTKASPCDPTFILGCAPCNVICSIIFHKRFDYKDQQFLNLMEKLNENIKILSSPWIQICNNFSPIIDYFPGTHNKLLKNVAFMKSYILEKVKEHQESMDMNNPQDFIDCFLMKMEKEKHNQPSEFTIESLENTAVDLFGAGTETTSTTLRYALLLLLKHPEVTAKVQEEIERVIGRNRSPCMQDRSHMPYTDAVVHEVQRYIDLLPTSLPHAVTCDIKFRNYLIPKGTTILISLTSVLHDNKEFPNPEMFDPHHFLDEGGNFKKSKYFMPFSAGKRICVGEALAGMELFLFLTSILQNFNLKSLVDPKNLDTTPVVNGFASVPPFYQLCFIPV
pIC50: −log10 of the molar value.
reported property: pIC50

smiles representation | tested system | measured value
CC[C@H](NC(=O)[C@H]1CN(c2ccc(C(=N)N)cc2)C(=O)O1)c1cccc2ccccc12 | CYP2C9 (Homo sapiens) | < 5.00

* * *

# tested system: KLK6 (Homo sapiens)
# assay name: KLK6 enzymatic inhibition assay (fluorogenic Boc-Phe-Ser-Arg-AMC substrate)
# Type: biochemical
# Parameters: made in house
# test context: HTS library sample, primary dose-response enzymatic inhibition assay; read-out: KLK6 pIC50 (converted)
Catalogue of compounds with associated IC50

compound | tested system | value unit | IC50
N=C(N)c1ccc(N2CC(CC(=O)NCc3ccccc3C(F)(F)F)OC2=O)cc1 (stereo not shown) [Compound 6] | KLK6 (Homo sapiens) | µM | 10
COc1cccc([C@H](C)NC(=O)[C@H]2CN(c3ccc(C(=N)N)cc3)C(=O)O2)c1 [Compound 5] | KLK6 (Homo sapiens) | µM | 0.0631
CCN(CC)C(=O)c1cccc(OCC2CN(c3ccc(C(=N)N)cc3)C(=O)O2)c1 (stereo not shown) [Compound 8] | KLK6 (Homo sapiens) | µM | 7.94
CCOC(=O)C[S+]([O-])CC1CN(c2ccc(C(=N)N)cc2)C(=O)O1 (stereo not shown) [Compound 7] | KLK6 (Homo sapiens) | µM | 1.58

* * *

# tested system: KLK4 (Homo sapiens, UniProt Q9Y5K2)
# Sequence (Q9Y5K2 31-254, species assumed): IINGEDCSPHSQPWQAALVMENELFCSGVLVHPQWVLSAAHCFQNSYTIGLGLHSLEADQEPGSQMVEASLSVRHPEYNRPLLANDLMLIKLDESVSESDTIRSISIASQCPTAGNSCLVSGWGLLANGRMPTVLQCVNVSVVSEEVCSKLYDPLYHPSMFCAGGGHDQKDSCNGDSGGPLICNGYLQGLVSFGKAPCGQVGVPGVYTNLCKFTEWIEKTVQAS
# assay name: KLK4 inhibition (selectivity)
# Type: biochemical
# test context: read-out: KLK4 pIC50 (converted)
IC50 overview
reported property: IC50 (µM)

compound | reported property | measured value
COc1cccc(C(C)NC(=O)C2CC(=O)N(c3ccc(C(=N)N)cc3)C2)c1 (stereo not drawn) | IC50 | 7.94
C[C@H](NC(=O)[C@H]1CN(c2ccc(C(=N)N)cc2)C(=O)O1)c1ccc2ccccc2c1 | IC50 | 3.16
CC(C)(NC(=O)[C@H]1CN(c2ccc(C(=N)N)cc2)C(=O)O1)c1ccccc1 | IC50 | 39.8
CC[C@H](NC(=O)[C@H]1CN(c2ccc(C(=N)N)cc2)C(=O)O1)c1cccc(OC)c1 | IC50 | 2.51
CC[C@H](NC(=O)[C@H]1CN(c2ccc(CN)cc2)C(=O)O1)c1cccc2ccccc12 | IC50 | 5.01
CC(C)(NC(=O)[C@H]1CN(c2ccc(C(=N)N)cc2)C(=O)O1)C(=O)Nc1ccccc1 | IC50 | 1.58

* * *

# tested system: KLK8 (Homo sapiens, UniProt O60259)
# Construct: purchased 2B scientific
# Sequence (O60259 33-260, species assumed): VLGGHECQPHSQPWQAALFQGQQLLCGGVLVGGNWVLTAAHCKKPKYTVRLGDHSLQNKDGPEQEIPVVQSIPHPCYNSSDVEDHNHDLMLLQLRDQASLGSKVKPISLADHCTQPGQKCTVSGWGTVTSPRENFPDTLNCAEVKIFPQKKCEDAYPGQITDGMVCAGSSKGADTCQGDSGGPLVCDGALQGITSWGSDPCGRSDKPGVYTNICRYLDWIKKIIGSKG
# assay name: KLK8 enzyme inhibition assay
# Type: biochemical
# test context: read-out: KLK8 pIC50 (converted)
# log10 of IC50 listing for each entry below
reported property: log10 of IC50 (log10 of the value in µM)

smiles representation | measured value
COc1cccc([C@@H](NC(=O)[C@H]2CN(c3ccc(C(=N)N)cc3)C(=O)O2)C2CC2)c1 | -0.10
C[C@H](NC(=O)[C@H]1CN(c2ccc(C(=N)N)cc2)C(=O)O1)c1cccc2ccccc12 | 0.00
COc1cccc([C@H](C)NC(=O)[C@H]2CN(c3ccc(C(=N)N)cc3)C(=O)O2)c1 | 1.00
CC[C@H](NC(=O)[C@H]1CN(c2ccc(C(=N)N)cc2)C(=O)O1)c1cccc(OC)c1 | 0.70
COc1cccc([C@H](C)NC(=O)[C@@H]2CCN(c3ccc(C(=N)N)cc3)C2)c1 | 0.90
C[C@H](NC(=O)[C@H]1CN(c2ccc(C(=N)N)cc2)C(=O)O1)c1ccc2ccccc2c1 | 1.00
CC[C@H](NC(=O)[C@H]1CN(c2ccc(CN)cc2)C(=O)O1)c1cccc2ccccc12 | 1.00
CC[C@H](NC(=O)[C@H]1CN(c2ccc(C(=N)N)nc2)C(=O)O1)c1cccc2ccccc12 | -0.30
CC[C@H](NC(=O)[C@H]1CN(c2ccc(C(=N)N)cc2)C(=O)O1)c1cccc2ccccc12 | -0.70

* * *

# tested system: Human trypsin (Homo sapiens)
# Construct: purchased Polymun Scientific
# assay name: Trypsin enzyme inhibition assay
# Format: biochemical
# test context: read-out: Trypsin pIC50 (converted)
# Procedure: Human thrombin was purchased from Biopur. Human trypsin was purchased from Polymun Scientific. Human Factor Xa was purchased from Enzo Life Sciences. […] Fluorescence intensity was then read at ex/em 485/535 following incubation for 1 h at room temperature (thrombin and factor Xa) or 20 min (trypsin).
Consider the following compounds and their measured IC50 readings.

smiles representation | tested system | limit sign | IC50 [µM]
CC(C)(NC(=O)[C@H]1CN(c2ccc(C(=N)N)cc2)C(=O)O1)c1cccc2ccccc12 | Human trypsin (Homo sapiens) | = | 5.01
COc1cccc(CNC(=O)[C@H]2CN(c3ccc(C(=N)N)cc3)C(=O)O2)c1 | Human trypsin (Homo sapiens) | > | 20
COc1cccc(C(C)(C)NC(=O)[C@H]2CN(c3ccc(C(=N)N)cc3)C(=O)O2)c1 | Human trypsin (Homo sapiens) | = | 10
COc1cccc([C@@H](NC(=O)[C@H]2CN(c3ccc(C(=N)N)cc3)C(=O)O2)C2CC2)c1 | Human trypsin (Homo sapiens) | = | 0.251

* * *

# tested system: Human trypsin (Homo sapiens, UniProt P07477)
# Construct: purchased Polymun Scientific
# assay name: Trypsin enzyme inhibition assay
# Format: biochemical
# test context: read-out: Trypsin pIC50 (converted)
reported property: IC50

smiles representation | measured value
COc1cccc([C@H](C)NC[C@H]2CN(c3ccc(C(=N)N)cc3)C(=O)O2)c1 | > 20 µM
COc1cccc([C@@H](C)NC(=O)[C@H]2CN(c3ccc(C(=N)N)cc3)C(=O)O2)c1 | > 20 µM
CC(C)(NC(=O)[C@H]1CN(c2ccc(C(=N)N)cc2)C(=O)O1)c1ccccc1 | > 20 µM

The values you see were collected from paper PMC7004151.
